biological target: CFTR-mediated chloride transport (Homo sapiens); assay type: cell-based; settings: enteroid cells incubated with test compound 18-24 hours; acute 10 μM forskolin and 300 nM Compound III; % of chloride transport with 3 μM Compound A, 3 μM Compound II and 300 nM acute Compound III triple combination control
Sequence (P13569 whole entry, looked up): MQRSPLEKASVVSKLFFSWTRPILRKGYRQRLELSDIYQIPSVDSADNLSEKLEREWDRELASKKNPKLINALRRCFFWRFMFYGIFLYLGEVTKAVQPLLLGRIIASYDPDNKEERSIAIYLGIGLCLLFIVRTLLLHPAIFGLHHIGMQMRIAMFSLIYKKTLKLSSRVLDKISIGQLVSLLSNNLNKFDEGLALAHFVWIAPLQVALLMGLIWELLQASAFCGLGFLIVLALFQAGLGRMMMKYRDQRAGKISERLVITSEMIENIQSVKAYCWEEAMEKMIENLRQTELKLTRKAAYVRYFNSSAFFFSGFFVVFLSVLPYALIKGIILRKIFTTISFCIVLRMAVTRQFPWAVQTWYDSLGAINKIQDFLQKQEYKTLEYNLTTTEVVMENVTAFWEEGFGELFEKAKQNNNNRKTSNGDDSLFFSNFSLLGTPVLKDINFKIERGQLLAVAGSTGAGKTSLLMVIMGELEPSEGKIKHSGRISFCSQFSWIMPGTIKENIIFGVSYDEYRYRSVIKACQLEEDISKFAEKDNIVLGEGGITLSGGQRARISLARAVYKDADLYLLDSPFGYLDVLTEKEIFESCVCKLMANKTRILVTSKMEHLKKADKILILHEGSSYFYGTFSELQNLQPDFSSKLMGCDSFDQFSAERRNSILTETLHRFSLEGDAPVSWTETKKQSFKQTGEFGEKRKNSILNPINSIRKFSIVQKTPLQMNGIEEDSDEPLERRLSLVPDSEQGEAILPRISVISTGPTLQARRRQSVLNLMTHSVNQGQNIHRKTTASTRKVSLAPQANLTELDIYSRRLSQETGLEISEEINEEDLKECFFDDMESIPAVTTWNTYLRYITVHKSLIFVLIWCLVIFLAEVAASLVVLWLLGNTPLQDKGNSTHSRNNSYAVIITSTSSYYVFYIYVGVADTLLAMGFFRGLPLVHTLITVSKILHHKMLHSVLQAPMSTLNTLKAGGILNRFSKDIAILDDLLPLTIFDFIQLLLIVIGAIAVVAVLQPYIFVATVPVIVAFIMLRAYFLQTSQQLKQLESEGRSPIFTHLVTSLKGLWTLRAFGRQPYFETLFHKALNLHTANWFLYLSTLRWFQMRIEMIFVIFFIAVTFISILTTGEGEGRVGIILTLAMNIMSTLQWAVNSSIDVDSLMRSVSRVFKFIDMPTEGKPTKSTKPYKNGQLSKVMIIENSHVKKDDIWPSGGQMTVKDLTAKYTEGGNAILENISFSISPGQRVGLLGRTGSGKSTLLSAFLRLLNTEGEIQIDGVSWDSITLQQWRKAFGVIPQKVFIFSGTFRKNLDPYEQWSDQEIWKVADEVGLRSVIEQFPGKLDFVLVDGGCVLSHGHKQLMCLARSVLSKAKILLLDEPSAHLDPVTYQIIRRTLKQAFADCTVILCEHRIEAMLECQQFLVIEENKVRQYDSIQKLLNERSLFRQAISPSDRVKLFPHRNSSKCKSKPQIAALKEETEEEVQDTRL
property-label: Max. Activity

{"columns": ["compound", "Max. Activity"],
 "data": [
  ["CC1(C)CC2CCCNc3ccnc(c3)S(=O)(=O)NC(=O)c3ccc(-n4ccc(OCCC5(C(F)(F)F)CC5)n4)nc3N1C2 (stereo not drawn)", "+ (+ is <30%)"],
  ["C[C@@H]1CC[C@H]2CN(c3nc(-n4ccc(OCCC5(C(F)(F)F)CC5)n4)ccc3C(=O)NS(=O)(=O)c3cccc(n3)N1)C(C)(C)C2 (single isomer, unassigned) [Compound 60]", "+++ (+++ is >60%)"],
  ["CN1CCC[C@@H]2CCC(C)(C)N2c2nc(-n3ccc(OCCC4(C(F)(F)F)CC4)n3)ccc2C(=O)NS(=O)(=O)c2cccc1n2", "+++ (+++ is >60%)"],
  ["CC1(C)C[C@@H]2CCCNc3cccc(n3)S(=O)(=O)NC(=O)c3ccc(-n4ccc(OCCCC5(C(F)(F)F)CC5)n4)nc3N1C2", "+++ (+++ is >60%)"],
  ["CN1CCCC2CN(c3nc(-n4ccc(OCCC5(C(F)(F)F)CC5)n4)ccc3C(=O)NS(=O)(=O)c3ccc1nc3)C(C)(C)C2 (stereo not drawn)", "++ (++ is 30-60%)"],
  ["CC1(C)CC2CCCNc3cccc(n3)S(=N)(=O)NC(=O)c3ccc(-n4ccc(OCCC5(C(F)(F)F)CC5)n4)nc3N1C2 (stereo not drawn) [Compound 262]", "+++ (+++ is >60%)"],
  ["CC1(C)CC2CCCCCc3ccc(cn3)S(=O)(=O)NC(=O)c3ccc(-n4ccc(OCCC5(C(F)(F)F)CC5)n4)nc3N1C2 (stereo not drawn)", "+ (+ is <30%)"],
  ["CC1(C)C[C@@H]2CCCNc3cccc(n3)S(=O)(=O)NC(=O)c3ccc(N4CC[C@H](CCCC5(C(F)(F)F)CC5)C4=O)nc3N1C2 (single isomer, unassigned) [Compound 175]", "+++ (+++ is >60%)"]
]}

Query: Record request: Max. Activity value, item CC1(C)C[C@H]2CNc3cccc(n3)S(=O)(=O)NC(=O)c3ccc(-n4ccc(OCCC5(C(F)(F)F)CC5)n4)nc3N1C2 (single isomer, unassigned) [Compound 25]
Result: ++ (++ is 30-60%)

Query: Looking for the measured Max. Activity of CC1(C)C[C@@H]2CCCNc3ccc(O)c(n3)S(=O)(=O)NC(=O)c3ccc(-n4ccc(OCCCC5(C(F)(F)F)CC5)n4)nc3N1C2 , can you help?
Result: ++ (++ is 30-60%)

Query: // lookup Max. Activity for Cc1ccc2nc1S(=O)(=O)NC(=O)c1ccc(-n3ccc(OCCC4(C(F)(F)F)CC4)n3)nc1N1C[C@H](CCCN2)CC1(C)C (single isomer, unassigned) [Compound 148]
Result: + (+ is <30%)

Query: What does the record list as Max. Activity for CC1(C)CC2CCNc3cccc(n3)S(=O)(=O)NC(=O)c3ccc(-n4ccc(OCC5(C(F)(F)F)CC5)n4)nc3N1C2 (stereo not drawn) ?
Result: +++ (+++ is >60%)

Cited source for all entries: patent US11866450B2
